All figures here come from ChEMBL document CHEMBL3259659.

- MEASUREMENT_PROTOCOL: Cytotoxicity against human BxPC3 cells after 48 hrs by fluorescence assay
- Assay type: functional, cell-based
- DETAILS: BXPC-3, 48 h
The entries below come with measured pEC50 values attached.
Lab note — pEC50 values are minus log10 of concentrations in M.

CC(C)=CCC/C(C)=C/CC/C(C)=C/CSC[C@H](NC(=O)CCCCCN1CCCC1)C(=O)N1CCCCC1 ... 5.06
CC(C)=CCC/C(C)=C/CC/C(C)=C/CSC[C@H](NC(=O)CCCCCN1CCCC1)C(=O)N1CCCC1 ... 5.19
CC(C)=CCC/C(C)=C/CC/C(C)=C/CSC[C@H](NC(=O)CCCCCN1CCCC1)C(=O)NC1CCCCC1 ... 4.90
CC(C)=CCC/C(C)=C/CC/C(C)=C/CSC[C@H](NC(=O)CCCCCN1CCCC1)C(=O)NC1CCCCCC1 ... 5.24
CC(C)=CCC/C(C)=C/CC/C(C)=C/CSC[C@H](NC(=O)CCCCCN1CCCC1)C(=O)NC1CCCC1 ... 5.17

// next item, pEC50 requested
Asked: Please give the measured pEC50 for this molecule: `CC(C)=CCC/C(C)=C/CC/C(C)=C/CSC[C@H](NC(=O)CCCCCN1CCN(C)CC1)C(=O)NC1CC1`
Given back: 5.20

====

- MEASUREMENT_PROTOCOL: Lipophilicity, log D of the compound
- Type: physicochemical
- DETAILS: octanol/water
MEASURED_ENDPOINT: logD

Below, each entry is followed by its recorded logD result.
CC(C)=CCC/C(C)=C/CC/C(C)=C/CSC[C@H](NC(=O)CCCCCN1CCN(C)CC1)C(=O)NC1CCCCCC1 ... 5.44
CC(C)=CCC/C(C)=C/CC/C(C)=C/CSC[C@H](NC(=O)CCCCCN1CCN(C)CC1)C(=O)NC1CCCCCCC1 ... 5.88
CC(C)=CCC/C(C)=C/CC/C(C)=C/CSC[C@H](NC(=O)CCCCCN1CCCC1)C(=O)NC1CCCCCC1 ... 4.93

Asked: Please give the measured logD for this molecule: `CC(C)=CCC/C(C)=C/CC/C(C)=C/CSC[C@H](NC(=O)CCCCCN1CCN(C)CC1)C(=O)N1CCCC1`
Given back: 3.82

Asked: Then what about the molecule `CC(C)=CCC/C(C)=C/CC/C(C)=C/CSC[C@H](NC(=O)CCCCCN1CCCC1)C(=O)N1CCCC1` ?
Given back: 3.31

Asked: Then what about the molecule `CC(C)=CCC/C(C)=C/CC/C(C)=C/CSC[C@H](NC(=O)CCCCCN1CCN(C)CC1)C(=O)NC1CCCCC1` ?
Given back: 4.99

Asked: Then what about the molecule `CC(C)=CCC/C(C)=C/CC/C(C)=C/CSC[C@H](NC(=O)CCCCCN1CCN(C)CC1)C(=O)NC1CCCC1` ?
Given back: 4.55

Asked: Then what about the molecule `CC(C)=CCC/C(C)=C/CC/C(C)=C/CSC[C@H](NC(=O)CCCCCN1CCCC1)C(=O)NC1CCCCCCC1` ?
Given back: 5.37

Asked: Then what about the molecule `CC(C)=CCC/C(C)=C/CC/C(C)=C/CSC[C@H](NC(=O)CCCCCN1CCCC1)C(=O)NC1CC1` ?
Given back: 3.15

Asked: Then what about the molecule `CC(C)=CCC/C(C)=C/CC/C(C)=C/CSc1ccccc1C(=O)O` ?
Given back: 3.43

Asked: Then what about the molecule `CC(C)=CCC/C(C)=C/CC/C(C)=C/CSC[C@H](NC(=O)CCCCCN1CCN(C)CC1)C(=O)NC1CC1` ?
Given back: 3.66

Asked: Then what about the molecule `CC(C)=CCC/C(C)=C/CC/C(C)=C/CSC[C@H](NC(=O)CCCCCN1CCN(C)CC1)C(=O)N1CCCCC1` ?
Given back: 4.27
